target: CB2 receptor (Homo sapiens, UniProt P34972)
Sequence (P34972 whole entry): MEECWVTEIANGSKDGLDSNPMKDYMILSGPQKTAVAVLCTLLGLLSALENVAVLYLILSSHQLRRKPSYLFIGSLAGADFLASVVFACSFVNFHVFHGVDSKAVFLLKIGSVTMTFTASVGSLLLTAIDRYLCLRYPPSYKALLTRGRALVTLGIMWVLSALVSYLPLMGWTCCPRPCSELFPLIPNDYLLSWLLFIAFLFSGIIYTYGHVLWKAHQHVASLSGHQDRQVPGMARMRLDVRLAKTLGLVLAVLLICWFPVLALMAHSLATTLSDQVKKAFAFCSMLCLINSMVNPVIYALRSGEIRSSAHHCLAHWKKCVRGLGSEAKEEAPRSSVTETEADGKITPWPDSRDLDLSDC
pKi: −log10 of the molar value.
measure_name: pKi

Task: System CB2 receptor (Homo sapiens, UniProt P34972). Read-out pKi. Item CCCCCC1=C(NCC)C(=O)C(C/C=C(\C)CCC=C(C)C)=C(O)C1=O [VCE-003.2] . Report value.
Output: < 4.40

---

target: PPARγ (Homo sapiens)
Sequence (P37231 232-505 limits assumed): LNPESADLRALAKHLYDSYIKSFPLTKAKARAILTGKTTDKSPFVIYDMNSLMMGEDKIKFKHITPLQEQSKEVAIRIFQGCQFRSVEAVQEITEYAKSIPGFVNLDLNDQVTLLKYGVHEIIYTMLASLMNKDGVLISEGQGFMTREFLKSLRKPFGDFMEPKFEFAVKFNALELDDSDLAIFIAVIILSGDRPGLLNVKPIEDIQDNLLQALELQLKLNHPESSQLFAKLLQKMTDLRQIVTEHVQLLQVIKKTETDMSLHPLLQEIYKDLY
measure_name: pIC50
Remember the convention: pIC50 equals -log10 of concentration in molar.

Task: Provide the reported pIC50 (system: PPARγ (Homo sapiens)) for CCCCCC1=C(NCC)C(=O)C(C/C=C(\C)CCC=C(C)C)=C(O)C1=O [VCE-003.2]
Output: 5.92
